Measured values drawn from PubChem BioAssay (NCI) for this set.

Assign growth to each entry below.
System: SK-MEL-5 melanoma
Assay: NCI-60 one-dose screen, 48 h (100 = growth as untreated, 0 = no growth, -100 = all killed)
Details: 10 µM unless noted
The panel holds about 83,000 compounds, 20% with a hit somewhere; the sample as a whole holds those more often.
Number in %, nothing else.

Query: # returns recorded growth (system: SK-MEL-5 melanoma) for CSc1ccc2c(c1)N(CCC1CCCCN1C)c1ccccc1S2 (stereo unspecified)
Response: 23.7

Query: Also Cc1ccc(NC(=O)COC(=O)c2ccc(S(=O)(=O)N3CCCCCC3)cc2)cc1 , if possible.
Response: 104

Query: Also O=C(/C(=C/c1cccc([N+](=O)[O-])c1)c1ccccc1)c1ccccc1 , if possible.
Response: 41.5

Query: Also O=C1OCC/C1=C\OCCCO/C=C1\CCOC1=O , if possible.
Response: 105

Query: Also c1coc([C@@H]2C[C@@H]3Cc4ccc5ccccc5c4N2O3)c1 , if possible.
Response: 101

Query: Also Cc1cc(Cl)ccc1Nc1nc(C(F)(F)F)ccc1C(=O)NCC(=O)N/N=C/c1c(Cl)cccc1Cl , if possible.
Response: 70.5

Query: Also CC(C)(C)c1ccc(S(=O)(=O)O)s1 , if possible.
Response: 109

Query: Also Cc1cc(O)c2c(c1)C[C@H]1[C@@H]3CC[C@H]4CC(=O)CC[C@]4(C)[C@H]3CC(=O)[C@]21C , if possible.
Response: 73.3

Query: Also COc1ccc2c(c1)nc(N)c1c3cc(OC)c(OC)cc3cn21 , if possible.
Response: 34.1

Query: Also O=C(/C(=C/c1ccc([N+](=O)[O-])cc1)c1ccccc1)c1ccccc1 , if possible.
Response: 43.6

Query: Also COc1ccc(COC(C)=O)cc1 , if possible.
Response: 108
